Entry source: patent EP0397914A1

- measurement protocol: Acute toxicity (LD50) in mice
- condition notes: mouse, in vivo, ip; intraperitoneal injection, male ICR mice (6 weeks old), after one week; read-out: LD₅₀
observation type: LD50 at 168 h (mg/kg)
Numbers only, in mg/kg.

Kindly note the recorded LD50 at 168 h for O=C(O[C@@H]1Cc2c(O)cc(O)cc2O[C@@H]1c1cc(O)c(O)c(O)c1)c1cc(O)c(O)c(O)c1 [epigallocatechin gallate, (-) epigallocatechin gallate] , which is 150
